# target.desc: Kelch-like protein 12 (Homo sapiens, UniProt Q53G59)
# Sequence (Q53G59 whole entry): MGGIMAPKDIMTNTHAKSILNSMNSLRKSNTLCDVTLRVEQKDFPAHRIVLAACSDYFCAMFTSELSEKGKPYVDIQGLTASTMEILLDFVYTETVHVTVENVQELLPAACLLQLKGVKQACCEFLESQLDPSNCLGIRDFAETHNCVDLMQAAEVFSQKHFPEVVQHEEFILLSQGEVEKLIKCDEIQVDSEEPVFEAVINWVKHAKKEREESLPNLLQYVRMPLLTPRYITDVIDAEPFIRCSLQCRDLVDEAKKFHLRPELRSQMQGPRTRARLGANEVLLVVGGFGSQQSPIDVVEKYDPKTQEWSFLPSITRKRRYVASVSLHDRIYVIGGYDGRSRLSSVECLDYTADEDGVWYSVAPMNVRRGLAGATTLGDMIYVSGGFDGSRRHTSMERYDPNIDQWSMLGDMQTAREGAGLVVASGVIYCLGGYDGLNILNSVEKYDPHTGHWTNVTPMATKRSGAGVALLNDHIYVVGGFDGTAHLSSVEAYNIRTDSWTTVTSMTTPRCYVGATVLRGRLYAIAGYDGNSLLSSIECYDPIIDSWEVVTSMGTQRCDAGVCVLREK
# measurement.protocol: Binding affinity to KLHL12 (unknown origin) assessed as inhibition constant
experimental.readout: Ki (µM)
Express it in µM; write the number only.

QUERY: // returns reported Ki for input H-PGAPPGRDLASVP-OH
RESULT: 21

###

# target.desc: Keap1/Nrf2 (Homo sapiens, UniProt Q14145)
# Sequence (Q16236 whole entry): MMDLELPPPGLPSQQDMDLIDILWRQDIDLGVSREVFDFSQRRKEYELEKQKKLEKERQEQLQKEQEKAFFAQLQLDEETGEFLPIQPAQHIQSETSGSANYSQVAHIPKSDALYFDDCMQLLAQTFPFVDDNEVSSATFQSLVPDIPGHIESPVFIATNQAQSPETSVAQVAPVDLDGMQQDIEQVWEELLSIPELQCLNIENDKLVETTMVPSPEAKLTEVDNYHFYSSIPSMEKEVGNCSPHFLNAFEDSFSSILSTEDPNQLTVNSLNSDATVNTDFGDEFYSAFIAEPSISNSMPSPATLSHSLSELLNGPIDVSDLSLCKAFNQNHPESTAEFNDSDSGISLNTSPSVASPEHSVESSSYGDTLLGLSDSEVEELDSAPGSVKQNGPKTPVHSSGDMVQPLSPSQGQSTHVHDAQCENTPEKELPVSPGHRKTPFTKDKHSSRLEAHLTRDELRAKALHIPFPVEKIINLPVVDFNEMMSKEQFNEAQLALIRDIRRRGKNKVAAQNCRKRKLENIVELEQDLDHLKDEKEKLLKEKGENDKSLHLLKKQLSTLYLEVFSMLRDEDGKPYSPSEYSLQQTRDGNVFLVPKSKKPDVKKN
# Sequence (Q14145 whole entry): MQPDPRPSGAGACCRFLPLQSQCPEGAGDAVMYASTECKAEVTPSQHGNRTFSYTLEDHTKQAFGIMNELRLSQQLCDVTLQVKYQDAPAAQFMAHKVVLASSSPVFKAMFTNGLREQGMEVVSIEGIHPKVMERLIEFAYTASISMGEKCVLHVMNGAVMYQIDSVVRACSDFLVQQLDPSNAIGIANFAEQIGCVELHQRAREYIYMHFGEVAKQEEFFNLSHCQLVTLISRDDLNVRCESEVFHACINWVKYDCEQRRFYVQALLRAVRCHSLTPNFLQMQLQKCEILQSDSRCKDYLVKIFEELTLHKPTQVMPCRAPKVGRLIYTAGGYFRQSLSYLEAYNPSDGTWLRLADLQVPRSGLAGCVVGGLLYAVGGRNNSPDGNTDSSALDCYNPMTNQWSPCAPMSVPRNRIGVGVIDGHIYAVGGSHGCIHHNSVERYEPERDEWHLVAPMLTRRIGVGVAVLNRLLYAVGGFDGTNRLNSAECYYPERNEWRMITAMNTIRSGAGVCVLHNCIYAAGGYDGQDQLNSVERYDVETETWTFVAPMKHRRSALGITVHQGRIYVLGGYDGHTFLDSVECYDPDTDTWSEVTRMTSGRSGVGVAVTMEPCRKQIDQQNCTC
# measurement.protocol: Inhibition of Keap1-Nrf2 protein-protein interaction (unknown origin) by fluorescence polarization assay
experimental.readout: pIC50
Conceptually, pIC50 converts a concentration in mol/L into minus its log10.

QUERY: // returns reported pIC50 for input Ac-DPSTGEL-OH
RESULT: 4.46
